# target-desc: Potassium voltage-gated channel subfamily KQT member 2 (Rattus norvegicus)
# assay: KCNQ2 potentiation in CHO cells – cell-based, FluxOR thallium flux, counter-screen for hERG block protector project, confirmation (AID 1942);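 further: normalized value minus buffer-control mean plus three SD of buffer wells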
# details: FluxOR thallium flux fluorescence, at 10 µM, hits give high values
About 580 (24%) of roughly 2,400 compounds were called active. The list is a sample of the results.

[
  {
    "compound": "CCCC(=O)NC(=S)Nc1nc(-c2ccc(OC)cc2)cs1",
    "activity change, less the hit threshold (%)": -16.3
  },
  {
    "compound": "CCCn1c(SCC(=O)Nc2nc(-c3ccc(OC)cc3)cs2)nc2c1c(=O)n(C)c(=O)n2C",
    "activity change, less the hit threshold (%)": -16.4
  },
  {
    "compound": "CCC1SC2=NC(C)=C(C(=O)OC)C(c3ccc(C(=O)OC)cc3)N2C1=O (configuration not stated)",
    "activity change, less the hit threshold (%)": -10.7
  },
  {
    "compound": "CCOC(=O)c1c(NS(=O)(=O)Cc2ccccc2)sc2c1CCCC2",
    "activity change, less the hit threshold (%)": 32.5
  },
  {
    "compound": "CNc1nc(N)nc(OC(C(F)(F)F)C(F)(F)F)n1",
    "activity change, less the hit threshold (%)": -11
  },
  {
    "compound": "C/C(=N\\NC(=O)c1ccc(Cl)cc1)c1ccc(Br)s1",
    "activity change, less the hit threshold (%)": -6.9
  },
  {
    "compound": "COC(=O)c1c(NS(=O)(=O)Cc2ccccc2)sc2c1CCCC2",
    "activity change, less the hit threshold (%)": 42.1
  },
  {
    "compound": "Brc1ccc(-c2noc(CCc3ccccc3)n2)cc1",
    "activity change, less the hit threshold (%)": -24.9
  },
  {
    "compound": "Cc1ccc(CCNC(=O)c2cccc(NC3=NC4CS(=O)(=O)CC4S3)c2)cc1 (configuration not stated)",
    "activity change, less the hit threshold (%)": -10.3
  },
  {
    "compound": "Cc1ccc(C(=O)Nc2sc3c(c2C(=O)O)CCCCC3)o1",
    "activity change, less the hit threshold (%)": -23.9
  },
  {
    "compound": "O=C1C(=O)N(CCN2CCOCC2)C(c2cccnc2)/C1=C(/O)c1ccc(Cl)cc1 (configuration not stated)",
    "activity change, less the hit threshold (%)": -17.6
  },
  {
    "compound": "Cc1ccc(C)c(NC(=O)C2C3CCCC2C3c2ccccc2)c1 (configuration not stated)",
    "activity change, less the hit threshold (%)": -4.2
  }
]

###

# target-desc: Potassium voltage-gated channel subfamily KQT member 2 (Rattus norvegicus)
# assay: KCNQ2 potentiation in CHO cells – cell-based, FluxOR thallium flux, counter-screen for hERG block protector project, confirmation (AID 1942);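 further: normalized value minus buffer-control mean plus three SD of buffer wells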
# details: FluxOR thallium flux fluorescence, at 10 µM
The campaign covered roughly 2,400 compounds. About 580 (24%) were called active.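 How the source made its calls: active means activity change at or above the mean plus 3 SD of buffer wells without dofetilide, per plate; inactive means the rest.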 Not all results are given here.
Possible outcomes: YES for active, NO for inactive

[
  {
    "molecule": "CCN(CC)S(=O)(=O)c1ccc2[nH]c(=O)cc(C(=O)Nc3cccc(C(C)=O)c3)c2c1",
    "label-value": "NO"
  },
  {
    "molecule": "O=C(NC(=S)N1CCc2ccccc21)c1ccccc1Br",
    "label-value": "YES"
  },
  {
    "molecule": "Cc1ccc(S(=O)(=O)N(C)C)cc1NC(=S)NC(C)CCCC(C)C (stereo not drawn)",
    "label-value": "NO"
  },
  {
    "molecule": "CCOc1ccc(NC(=O)c2ccc3c(c2)CCN3S(C)(=O)=O)cc1",
    "label-value": "NO"
  },
  {
    "molecule": "CC(C)Oc1c(Cl)cc(CNC(C)(C)CO)cc1Cl",
    "label-value": "NO"
  },
  {
    "molecule": "O=C(c1cccs1)N1CCN(C23CC4CC(CC(C4)C2)C3)CC1",
    "label-value": "NO"
  },
  {
    "molecule": "Cc1cc(C)c(S(=O)(=O)c2ccccc2)c(OC(=O)c2c(F)cccc2Cl)n1",
    "label-value": "NO"
  },
  {
    "molecule": "CC(C)C1Cc2c(sc3[nH]c(=S)n(Cc4ccccc4)c(=O)c23)CO1 (stereo not drawn)",
    "label-value": "YES"
  },
  {
    "molecule": "Cc1ccsc1CN(C(=O)c1ccc([N+](=O)[O-])cc1)C1CCS(=O)(=O)C1 (stereo not drawn)",
    "label-value": "NO"
  },
  {
    "molecule": "CCCCCCCc1c(O)nc(SCC(=O)O)[nH]c1=O",
    "label-value": "NO"
  },
  {
    "molecule": "Cc1ccc(NC(=O)c2cc(NC(=O)/C=C\\C(=O)O)ccc2N2CCCCC2)cc1",
    "label-value": "YES"
  },
  {
    "molecule": "CC1(C)Cc2c(sc3[nH]c(=S)n(Cc4ccccc4)c(=O)c23)CO1",
    "label-value": "YES"
  },
  {
    "molecule": "Cc1ccc(-n2ccc(=O)c(C(=O)Nc3ccc(S(=O)(=O)Nc4nccs4)cc3)n2)cc1",
    "label-value": "NO"
  },
  {
    "molecule": "COc1ccc(CS(=O)(=O)CC2(O)CCN(C(=O)c3cccc(C(F)(F)F)c3)CC2)cc1",
    "label-value": "NO"
  },
  {
    "molecule": "Cc1cc(C(=O)NP(=O)(N2CCOCC2)N2CCOCC2)c(C)n1-c1ccc(Br)cc1",
    "label-value": "NO"
  },
  {
    "molecule": "CCn1c(O)c(N=NC(=O)CNC(=O)c2ccccc2F)c2ccccc21",
    "label-value": "NO"
  },
  {
    "molecule": "Cc1cc(C)c(S(=O)(=O)Nc2cccc(-n3cnnn3)c2)c(C)c1",
    "label-value": "NO"
  },
  {
    "molecule": "Cc1cc(SC#N)cc(C)c1NC(=O)CCl",
    "label-value": "YES"
  },
  {
    "molecule": "CCC[C@H]1COCCS(=O)(=O)N1Cc1ccc(Br)cc1",
    "label-value": "NO"
  },
  {
    "molecule": "CCC1(C)Cc2c(sc3[nH]c(=S)n(Cc4ccccc4)c(=O)c23)CO1 (stereo not drawn)",
    "label-value": "YES"
  },
  {
    "molecule": "CCOc1ccc(NC(=S)NS(=O)(=O)c2cc(Br)ccc2OCC)cc1",
    "label-value": "YES"
  },
  {
    "molecule": "CN1C(=O)CSc2ccc(NC(=O)N3CCc4ccccc43)cc21",
    "label-value": "NO"
  },
  {
    "molecule": "CCc1nnc(NC(=O)c2cccc(C(=O)Nc3nnc(CC)s3)n2)s1",
    "label-value": "NO"
  },
  {
    "molecule": "Cc1cccc(C)c1NC(=O)Cn1cnc2c(=O)n(C)c(=O)n(C)c21",
    "label-value": "NO"
  },
  {
    "molecule": "CC(NC(=O)c1ccncc1)C(C)(C)C (stereo not drawn)",
    "label-value": "YES"
  },
  {
    "molecule": "Cc1cc(NC(C)C)n2c(nc3ccccc32)c1C#N",
    "label-value": "NO"
  },
  {
    "molecule": "COC(=O)c1sc(NC(=S)NC(=O)c2ccccc2F)nc1C",
    "label-value": "YES"
  },
  {
    "molecule": "COc1ccc(NC(=O)c2cc(S(=O)(=O)N3CCOCC3)ccc2N2CCOCC2)cc1",
    "label-value": "NO"
  },
  {
    "molecule": "O=C(NC(=S)N1CCc2ccccc21)c1ccccc1",
    "label-value": "YES"
  },
  {
    "molecule": "FC(F)c1nnc2c(Cl)cc(C(F)(F)F)cn12",
    "label-value": "NO"
  },
  {
    "molecule": "Cc1ccc2c(c1)c1nnc(SCC(=O)Nc3ccc(N(C)C)cc3)nc1n2CC(=O)O",
    "label-value": "NO"
  },
  {
    "molecule": "COC(=O)c1sc(NC(=S)NC(=O)c2ccc(C)cc2)nc1C",
    "label-value": "NO"
  },
  {
    "molecule": "O=C(Nc1ccc(N2CCOCC2)cc1)c1ccc(S(=O)(=O)N2CCCCC2)cc1",
    "label-value": "NO"
  },
  {
    "molecule": "Cc1cccc(NC(=O)CN2C(=O)S/C(=C\\c3cccn3-c3cccc(C(=O)O)c3)C2=O)c1",
    "label-value": "NO"
  },
  {
    "molecule": "Cc1cccc(NC(=S)N/N=C2/CCCCc3ccccc32)c1",
    "label-value": "NO"
  },
  {
    "molecule": "CNC(=O)c1[nH]cnc1C(=O)Nc1ccccn1",
    "label-value": "NO"
  },
  {
    "molecule": "CN1C(=O)c2ccc(C(=O)NCc3ccccc3)cc2C1=O",
    "label-value": "NO"
  },
  {
    "molecule": "CCO/C=C1\\N=C(c2ccc(F)cc2)OC1=O",
    "label-value": "NO"
  }
]

These data points were gathered from PubChem BioAssay AID1942.
